Entries and their Cellular binding assay [RFU]
- Target: T1, CD27 expressed on the cell surface (HT1080_CD27 cells) (human, UniProt P26842 20-260)
- T1 construct: whole, on cells; also called K562_CD27
- T1 sequence (looked up): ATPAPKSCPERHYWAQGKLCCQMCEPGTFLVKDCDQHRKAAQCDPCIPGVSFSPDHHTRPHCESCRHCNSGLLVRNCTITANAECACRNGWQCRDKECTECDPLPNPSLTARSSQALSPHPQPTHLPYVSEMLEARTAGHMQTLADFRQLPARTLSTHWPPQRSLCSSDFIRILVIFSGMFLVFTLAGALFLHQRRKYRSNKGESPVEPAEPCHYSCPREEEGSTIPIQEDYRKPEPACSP
- Method Summary: cellular binding assay, HT1080_CD27 cells; note: test concentration or dose not given here
API: value field is a number in RFU; no unit string.

P018.S.06.A.F01 (antibody, V domains shown, V regions on human Ig constant parts; also called AB27_107) VH: QSLEESGGRLVTPGTPLTLTCTASGFSLSSYYMTWVRQAPGEGLEWIGTISTAGNTYFASWAKGRFTISRTSTTVDLKMTSPTTEDTATYFCARDGAGDSNYYRNLWGQGTLVTVSS VL: AYDMTQTPASVEAAVGGTVTIKCQASESIDRFLAWYQQKPGQPPKLLIVDASTLESGVPSRFSGSGSGTEFTLTISDLESDNAATYYCQQGYSISDIDNVFGGGTEVVVK
310
P018.S.01.A.E04 (antibody, V domains shown, V regions on human Ig constant parts; also called AB27_16) VH: QEQLKESGGGLVTPGGTLTLTCTASGSDISNYGVSWVRQAPGKGLEWIGFINADGGGTWYASWVKGRFTISRTSTTVELKMTSLTTEHTATYFCATYGGGGGHNLWGPGTLVTVSS VL: AQVLTQTPSSVSAAVGGTVTINCQSSQSVYDNNALAWYQQKPGQPPKLLLYSASRLASGVPSRFKGSGSGTQFTLTISDLESDDAATYYCAAYYGSGDIFAFGGGTEVVVE
295
P018.S.10.A.E06 (antibody, V domains shown, V regions on human Ig constant parts; also called AB27_178) VH: QSLEESGGRLVTPGTPLTLTCTVSGIDLSDYAMAWVRQAPGKGLEYIGFINIGGISSVANWAIGRFTISKSSTTVDLKITSPTTEDTATYFCAREGYTTGGGGPYYGMDLWGPGTLVTVSS VL: DIVMTQTPASVSEPMGGTVTIKCQASQSIHSWLSWYQQKPGQPPKRLIYTASTLASGVPSRFKGSGSGTEYTLTISDLESADAATYYCQRNSYSDFNNYVFGGGTEVVVK
215

Ask | Form field: reported Cellular binding assay [RFU] of P018.S.07.A.G04 (antibody, V domains shown, V regions on human Ig constant parts; also called AB27_130) VH: QSLEESGGRLVTPGTPLTLTCTVSGIDLSSYAMGWVRQAPGKGLEYIAIIYTTNRTHYATWAKGRFTISKSSTTVDLKATSLTTEDTATYFCGRYGRGSGGYYYGMDLWGPGTLVTVSS VL: DIVMTQTPASVEAAVGGTVTIKCQASQSGDNYCSWYQQKPGQPPKLLIYQASKLTSGVPSRFRGSRSGTEYTLTISDLESADAATYYCQNYCAGSGVCLGIAFGGGTEVVVK
Reply | 177

Ask | Form field: reported Cellular binding assay [RFU] of P018.S.01.A.G06 (antibody, V domains shown, V regions on human Ig constant parts; also called AB27_24) VH: QSLEESGGGLFKPTDTLTLTCTVSGIDLSRYAMGWVRQAPGKGLEYIGIISVGGGTYYANWIKGRFTISSTSTTVDLKITSPTTEDTATYFCARSPYASTSASAFNLWGPGTLVTVSS VL: AFELTQTPSSVEAAVGGTVTIKCQASQSIYSYLSWYQQKPGQPPKLLIYEASKLASGVPSRFSGSGSGTQFTLTISDLESADAATYYCQSYSNTNTNTFGGGTEVVVK
Reply | 313
